Target: Luciferin 4-monooxygenase (Photinus pyralis)
Assay: qHTS profiling assay for firefly luciferase inhibitor/activator using purifed enzyme and Km concentrations of substrates (counterscreen for miR-21 project); further: nearly all actives have a fitted effect of over 55% in size
Conditions: purified FLuc, luminescence inhibition; series mostly up to 57.5 µM
About 25,000 (6.9%) of roughly 360,000 compounds were called active. About 9% were inconclusive and are not listed. The call rests on the fitted dose curve; in most records, active means well fitted inhibition curve with a large enough effect; inconclusive means small, poorly fitted or top-dose-only effect; inactive means flat fitted curve, though single readings scatter. The sample as a whole holds a higher share of actives than the screen did.
Labels: T for active, F for inactive

[
  {
    "molecule": "Cc1ccc(C(=O)COC(=O)CCN2C(=O)C3C4CC(C(Br)C4Br)C3C2=O)cc1 (stereo unspecified)",
    "assigned.class": "F"
  },
  {
    "molecule": "CC(=O)Nc1ccc(NC(=O)CSc2nnnn2C2CCCCC2)cc1",
    "assigned.class": "F"
  },
  {
    "molecule": "Cc1ccccc1Nc1nn2c(=O)c3ccc(C(=O)NCCc4ccc(Cl)cc4)cc3nc2s1",
    "assigned.class": "F"
  },
  {
    "molecule": "CCOc1ncccc1C(=O)Nc1ccc(S(=O)(=O)Nc2nc(C)cc(C)n2)cc1",
    "assigned.class": "F"
  },
  {
    "molecule": "CCCn1c(=N)c(C(=O)NCc2ccccc2)cc2c(=O)n3cccc(C)c3nc21",
    "assigned.class": "F"
  },
  {
    "molecule": "Cc1cccc(C(=O)NCCc2nc3ccccc3n2Cc2ccccc2Cl)c1",
    "assigned.class": "F"
  },
  {
    "molecule": "CCN(CC)CCNc1ncnc2c1cnn2-c1cc(Cl)ccc1C",
    "assigned.class": "F"
  },
  {
    "molecule": "COc1ccc(C)cc1NC(=O)CCc1c(C)nn(-c2ccc(N3CCOCC3)nn2)c1C",
    "assigned.class": "F"
  },
  {
    "molecule": "CC1(C)O[C@@H]2[C@H](O1)[C@@H](COS(=O)(=O)O)O[C@H]2n1ccc(=O)[nH]c1=O",
    "assigned.class": "F"
  },
  {
    "molecule": "Cc1cccc(OCC(=O)N(Cc2ccc(C(C)C)cc2)Cc2ccco2)c1C",
    "assigned.class": "F"
  },
  {
    "molecule": "CC(C)(C)c1cc2cccnc2n1Cc1ccccc1",
    "assigned.class": "F"
  },
  {
    "molecule": "CCNC(=O)CC1C(=O)N(c2ccc(F)cc2)C(=O)N1CCc1sccc1C (stereo unspecified)",
    "assigned.class": "F"
  },
  {
    "molecule": "COCCN1C(=O)C(=O)/C(=C(/O)c2ccc(S(=O)(=O)N3CCOCC3)cc2)C1c1ccc(O)c(OC)c1 (stereo unspecified)",
    "assigned.class": "F"
  },
  {
    "molecule": "Cc1nn(CC(=O)Nc2ccc(F)cc2)c(=O)c2ccccc12",
    "assigned.class": "F"
  },
  {
    "molecule": "O=C(CCN1C(=O)C2C3CCC(C3)C2C1=O)Nc1ccc(Cl)cc1Cl (stereo unspecified)",
    "assigned.class": "F"
  },
  {
    "molecule": "Cc1ccc(C(=O)COC(=O)CCN2C(=O)C3C4CCC(C4)C3C2=O)cc1C (stereo unspecified)",
    "assigned.class": "T"
  },
  {
    "molecule": "O=C(Cc1ccc(Cl)cc1)Nc1ccc2nn(-c3ccc(Cl)cc3)nc2c1",
    "assigned.class": "F"
  },
  {
    "molecule": "COCCNc1ncnc2c1c(-c1ccccc1)cn2-c1ccc(C)c(Cl)c1",
    "assigned.class": "F"
  },
  {
    "molecule": "CC1CCCC(C)N1C(=O)CSc1nnnn1C1CCCC1 (stereo unspecified)",
    "assigned.class": "F"
  },
  {
    "molecule": "CCC(=O)Nc1ccc2nn(-c3ccc(F)cc3)nc2c1",
    "assigned.class": "T"
  },
  {
    "molecule": "Cc1cccc(OCCNC(=O)CSc2ccc(C(F)(F)F)cc2[N+](=O)[O-])c1",
    "assigned.class": "F"
  }
]
